Source of measurements: PubChem BioAssay (NCI)

Tested on: HCC-2998 colon
protocol details: NCI tumour cell line growth inhibition, 48 h
Listing of recorded TGI by entry.
Field: numeric (µM). Do not append units.

compound=Nc1cc2c([nH]c[n+]2CC#CCCl)c(SCC#CCCl)n1 units_text=µM numeric_readout=3.17
compound=COc1ccc2nc3ccccc3c(NCCN(C)CCCl)c2c1 units_text=µM numeric_readout=2.15
compound="O=C(OC1CC(n2cc(F)c(=O)[nH]c2=O)OC1CSC(=O)c1ccccc1)c1ccccc1 (stereo not given)" units_text=µM numeric_readout=75.2
compound=C[n+]1c(-c2ccccc2)cc2/c(=C\c3ccccc3)c3ccccc3n21 units_text=µM numeric_readout=14.2
compound=CCOC(=O)/C=C(\C(=O)OCC)n1ccc(=O)n(Cc2cnnn2COCCOC(C)=O)c1=O units_text=µM numeric_readout=33.4
compound="Clc1ccc(CCC(Cn2ccnc2)Sc2c(Cl)cccc2Cl)cc1 (stereo not given)" units_text=µM numeric_readout=11.8
compound="C=C1CC(Cn2ccc(=O)[nH]c2=O)(c2ccc(OC)cc2)OC1=O (stereo not given)" units_text=µM numeric_readout=17.5

query: Which value of TGI has been reported for COc1cc(-c2nc3ccccc3s2)ccc1OCCCCCOc1cc2c(cc1OC)C(=O)N1CCC[C@H]1C=N2 in the records?
result: 0.3

====

Listing of recorded GI50 by entry.
Test system: NCI-H522 lung
protocol details: NCI tumour cell line growth inhibition, 48 h

smiles_input=Cc1cc(C)c(-c2cc(O)c(-c3c(C)cc(C)cc3C)cc2O)c(C)c1 system="NCI-H522 lung" result="1740 nM"
smiles_input=C[C@@]12C(=O)OC(=O)[C@]1(C)[C@H]1CC[C@@H]2O1 system="NCI-H522 lung" result="1110 nM"
smiles_input=C=C1C(=O)O[C@H]2[C@H]1CC/C(COC(=O)CCCCCCC(=O)OC/C1=C/CC[C@@]3(C)O[C@H]3[C@H]3OC(=O)C(=C)[C@@H]3CC1)=C\CC[C@@]1(C)O[C@@H]21 system="NCI-H522 lung" result="1920 nM"

// below: GI50 requested for another molecule
query: Form field - read-out: GI50; system: NCI-H522 lung; submitted item: O=C(CCl)Nc1ccc2c(c1)C(=O)c1ccccc1C2=O
result: 533 nM

====

Test system: SNB-19 CNS
protocol details: NCI tumour cell line growth inhibition, 48 h
Listing of recorded TGI by entry.
Field: numeric (µM). Do not append units.

Worked examples follow.
compound=O=C(CCl)Nc1ccc2c(c1)C(=O)c1ccccc1C2=O readout_type=TGI numeric_readout=11.5
compound=c1ccc(CSc2nc(N3CCCCC3)c3cn[nH]c3n2)cc1 readout_type=TGI numeric_readout=79
compound=COc1ccc2nc(NNC(=O)c3cnccn3)c3cccn3c2c1 readout_type=TGI numeric_readout=28
compound="COc1ccc(C2CC(c3cc(Cl)c(C)cc3O)=NN2c2ccc(S(N)(=O)=O)cc2)cc1OC (stereo unspecified)" readout_type=TGI numeric_readout=89.3
compound=O=C(/C=C/c1cccc(Br)c1)c1ccc(Cl)cc1 readout_type=TGI numeric_readout=30.1

query: Which value of TGI has been reported for Cc1ccc(Nc2nc3nc[nH]c3c(=O)[nH]2)cc1CO in the records?
result: 24.6

====

Tested on: HS 578T breast
protocol details: NCI tumour cell line growth inhibition, 48 h
Listing of recorded TGI by entry.

Worked examples follow.
molecule=COc1ccc(NCc2cc(OC)c(OC)c(OC)c2)cc1 readout_type=TGI result="> 100 µM"
molecule=N#Cc1c(-c2ccccc2)cc(-c2ccccc2)n(CC(=O)NO)c1=O readout_type=TGI result="7.15 µM"
molecule=CC(=O)c1sc2c(c1OC(=O)c1ccc(Cl)cc1Cl)c(=O)n(-c1ccccc1)c(=S)n2-c1ccccc1 readout_type=TGI result="1.4 µM"
molecule=S=C(/C=C1\SC(=Nc2ccccc2)C(=Nc2ccccc2)N1c1ccccc1)Nc1ccccc1 readout_type=TGI result="> 100 µM"
molecule=Cc1c2ccccc2cc2nc3ccccc3n12 readout_type=TGI result="> 10 µM"

query: Which value of TGI has been reported for Cc1c(-c2ccccc2)c(C#N)c2nnn(-c3ccc([N+](=O)[O-])cc3)c(=O)n12 in the records?
result: > 100 µM

query: Ok, now CCOC(=O)NC(Nc1ncn(C(NC(=O)OCC)(C(F)(F)F)C(F)(F)F)n1)(C(F)(F)F)C(F)(F)F
result: > 100 µM

query: Ok, now c1ccc(CNCCN2CCNCC2)nc1
result: > 100 µM

query: Ok, now CC(=O)CC1(OC(=O)C2C(C=C(C)C)C2(C)C)C(=O)Nc2ccccc21 (stereo unspecified)
result: > 100 µM

query: Ok, now COc1ccc(NC(=S)N/N=C/c2cccc(C)n2)cc1
result: > 100 µM

====

Tested on: OVCAR-8 ovarian
protocol details: NCI tumour cell line growth inhibition, 48 h
readout type: TGI (µM)
Field: numeric (µM). Do not append units.

query: Which value of TGI has been reported for NC(N)=N/N=C(/CC1OC(=O)c2ccccc21)c1ccc2ccccc2c1 (stereo unspecified) in the records?
result: 31.5

query: Ok, now O=C(O)CNC(=O)C(CSC(=O)OCC1c2ccccc2-c2ccccc21)NC(=O)CCC(NC(=O)OCC1c2ccccc2-c2ccccc21)C(=O)O (stereo unspecified)
result: 32.4

query: Ok, now Cc1[nH]c2nccn2c(=O)c1CCCl
result: 87.6

query: Ok, now COCC(=O)Oc1cc(-c2ccc(C)cc2C)c(OC(=O)COC)c(-c2ccc(C)cc2C)c1
result: 90.3

====

Test system: LOX IMVI melanoma
protocol details: NCI tumour cell line growth inhibition, 48 h; in the data active = GI50 below about 0.43 µM; inactive = the rest
Respond using exactly one of the listed classes: 1 for active, -1 for inactive

compound=COc1cc(-c2n[nH]nc2-c2ccc3c(c2)OCCO3)cc(OC)c1OC class_assignment=1

query: Dear all, I need the recorded test outcome for CCCCCCCCc1ccc(OCCOCC[N+](C)(C)CC)cc1 (tested in a mixture with another compound) , thank you.
result: -1

query: Ok, now COc1ccc(C2CC(c3cc(Cl)c(C)cc3O)=NN2c2ccc(S(N)(=O)=O)cc2)cc1OC (stereo not drawn)
result: -1

====

NCI-H460 lung GI50 data

Worked examples follow.
compound=N#Cc1c(-c2ccccc2)cc(-c2ccccc2)n(CC(=O)NO)c1=O result="3.02 µM"
compound="C=Cc1ccccc1 (tested in a mixture with another compound)" result="> 75 mg/L"
compound=Cc1cccc2c(C(=O)O[C@H](C(N)=O)[C@]3(C)CO3)cccc12 result="4.31 µM"
compound=Cc1cc(-c2ncc(-c3cccnc3)cc2/C=C/c2ccccc2)cnc1-c1cccnc1 result="2.28 µM"
compound=CC(=O)c1nc2ccccc2n1CCN1CCN(C)CC1 result="2.3 µM"

query: Which value of GI50 has been reported for FC(F)(F)c1ccc(-c2cnc(Cl)nc2NC2CCCCCC2)cc1 in the records?
result: 73.1 µM

query: Ok, now Cn1cc(-c2nc3c(F)cc4[nH]ncc4c3c3c2CCCC3)c(C(F)(F)F)n1
result: 10.4 µM

query: Ok, now COc1ccc2c(c1)C(=O)c1c-2n(CCCCl)c(=O)c2cc(OC)c(OC)cc12
result: 2.4 µM

query: Ok, now O=C1Nc2ccccc2/C1=C/C(=N/c1nnc(-c2ccccc2)s1)c1ccccc1
result: 7.04 µM

query: Ok, now COc1ccc(/C=C/c2nnc(/C=C/c3ccc(OC)c(OC)c3)o2)cc1OC
result: 4.23 µM

====

Listing of recorded TGI by entry.
System: LOX IMVI melanoma
protocol details: NCI tumour cell line growth inhibition, 48 h

Worked examples follow.
compound=COc1cc2cccc(N=Cc3ccccc3Cl)c2cc1OC result="> 100 µM"
compound="C=Cc1ccccc1 (tested in a mixture with another compound)" result="> 75 µg/mL"
compound=Cc1ccc(Nc2nc3nc[nH]c3c(=O)[nH]2)cc1CO result="36.5 µM"
compound="CC(=O)OCC1OC(n2c(-c3ccc(C)cc3)cc(-c3ccco3)c(C#N)c2=S)C(OC(C)=O)C(OC(C)=O)C1OC(C)=O (stereo not given)" result="> 100 µM"

query: Form field - read-out: TGI; system: LOX IMVI melanoma; submitted item: C/C(CCn1[nH]c(=O)ccc1=O)=N\N=C(N)N
result: > 100 µM

====

Listing of recorded TGI by entry.
Tested on: UO-31 renal
protocol details: NCI tumour cell line growth inhibition, 48 h

Worked examples follow.
compound=NC(=O)SCC(=O)Nc1ccc2cccc3c2c1CC3 readout_type=TGI result="> 100 µM"
compound=C=C1C(=O)O[C@H]2[C@H]1CC/C(COC(=O)CCCCCCC(=O)OC/C1=C/CC[C@@]3(C)O[C@H]3[C@H]3OC(=O)C(=C)[C@@H]3CC1)=C\CC[C@@]1(C)O[C@@H]21 readout_type=TGI result="4.37 µM"
compound=Cc1ccc(/C=N/Nc2ccccn2)s1 readout_type=TGI result="> 100 µM"

// below: TGI requested for another compound
query: Form field - read-out: TGI; system: UO-31 renal; submitted item: CC(=O)c1sc2c(c1OC(=O)c1ccc(Cl)cc1Cl)c(=O)n(-c1ccccc1)c(=S)n2-c1ccccc1
result: 4.48 µM
